methodNotes: Pharmacokinetics of ginsenosides in plasma after a single oral dose of RG or BRG capsules in healthy Korean men (LC-MS/MS)
Format: in vivo, human
assayContext: male, human, in vivo, po, T 1/2
Examples of molecules with documented half-life follow.
I only need the number, in h, no unit after it.

The following molecules have reported results that may help.
| molecule | unitsSymbol | half-life |
| --- | --- | --- |
| CC(C)=CCCC(C)(OC1OC(CO)C(O)C(O)C1O)C1CCC2(C)C1C(O)CC1C3(C)CCC(O)C(C)(C)C3CCC12C (stereo not drawn) [CK, compound K] | h | 7.72 |
| CC(C)=CCC[C@](C)(O)[C@H]1CC[C@]2(C)[C@@H]1[C@H](O)C[C@@H]1[C@@]3(C)CC[C@H](O[C@@H]4O[C@H](CO)[C@@H](O)[C@H](O)[C@H]4O[C@@H]4O[C@H](CO)[C@@H](O)[C@H](O)[C@H]4O)C(C)(C)[C@@H]3CC[C@]12C [Rg3, ginsenoside Rg3] | h | 5.58 |

--- query ---
Item CC(C)=CCC[C@](C)(O[C@@H]1O[C@H](CO)[C@@H](O)[C@H](O)[C@H]1O)[C@H]1CC[C@]2(C)[C@@H]1[C@H](O)C[C@@H]1[C@@]3(C)CC[C@H](O[C@@H]4O[C@H](CO)[C@@H](O)[C@H](O)[C@H]4O)C(C)(C)[C@@H]3CC[C@]12C [Ginsenoside F2, ginsenoside F2] has what recorded half-life?
9.77
